experimental-system: Human thrombin (Homo sapiens, UniProt P00734)
assay-method-text: Determination of Thrombin Clotting Time (TT), Test A
experimental-setup: concentration of inhibitor that doubles the thrombin clotting time for human plasma; pooled normal citrated human plasma, pH 7.4
attribute-measured: IC50

Challenge: Reported IC50 for COc1ccc(OC)c(C(CO)C(=O)N2CCCC2C(=O)NCc2ccc(C(=N)N)cc2C)c1 (single isomer, unassigned) : what is it?
Response given: < 300 nM
